Target: SLC38A5 (Homo sapiens, UniProt Q8WUX1)
Sequence (Q8WUX1 whole entry): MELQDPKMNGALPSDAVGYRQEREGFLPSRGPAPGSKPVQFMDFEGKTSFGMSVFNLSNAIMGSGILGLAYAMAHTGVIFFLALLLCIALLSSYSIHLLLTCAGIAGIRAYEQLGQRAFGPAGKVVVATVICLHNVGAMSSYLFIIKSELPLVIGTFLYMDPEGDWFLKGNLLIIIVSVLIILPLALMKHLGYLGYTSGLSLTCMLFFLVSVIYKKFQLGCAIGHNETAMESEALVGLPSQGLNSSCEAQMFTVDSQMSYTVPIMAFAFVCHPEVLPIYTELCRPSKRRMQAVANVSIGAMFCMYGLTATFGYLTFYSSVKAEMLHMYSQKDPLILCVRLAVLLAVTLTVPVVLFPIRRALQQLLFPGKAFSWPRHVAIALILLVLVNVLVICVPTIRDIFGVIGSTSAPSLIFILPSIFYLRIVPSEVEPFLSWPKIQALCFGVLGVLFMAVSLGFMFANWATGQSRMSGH
Test: inhibition of Li+-stimulated [3H]-serine uptake in HPAF-II and TXBR-100 cells (endogenous transporter)
pIC50: −log10 of the molar value.
Endpoint: pIC50

Q) Can you look up pIC50 on SLC38A5 (Homo sapiens, UniProt Q8WUX1) for O=C(Nc1ccc([N+](=O)[O-])cc1Cl)c1cc(Cl)ccc1O [niclosamide] ?
A) 5.60 to 6.00

Sourced from paper PMC9913174
